Assay: Human HepG2 cell viability assay in 384 well format
Assay type: toxicity, cell-based
Parameters: dose 125 nL, time 70.5 hour; concentration not given beside the values
Conditions: HepG2 cells, read-out: Inhibition
measuredParameter: cytotoxicity at 70.5 h (%)
Answers are plain numbers, in %.

CCNC(=O)C1CCN(Cc2csc(-c3ccc(C)o3)n2)CC1 :: 0.934

// each compound listed below needs its cytotoxicity at 70.5 h
1. Cc1nn(C)c(C)c1C1COCCN1C(=O)NC1CC1 (stereo unspecified)
2. O=C(Nc1cc(F)ccc1OCC1CCCO1)N1CCCC1 (stereo unspecified)
3. COCCNC(=O)Nc1ccc(-c2nc(C(C)C)no2)cc1
4. O=C(C1CCCC1)N1CCC(c2ccnc(Nc3cnccn3)n2)C1 (stereo unspecified)

Response:
19.2
-17.1
-6.61
15

// each compound listed below needs its cytotoxicity at 70.5 h
1. O=C1[C@@H]2CCN(Cc3ccoc3)C[C@@H]2OCCN1Cc1cccc(F)c1
2. Cn1nccc1-c1cccc(CC2CCN(S(C)(=O)=O)C2)n1 (stereo unspecified)
3. Cc1ccc(C(=O)N2CCC3(CCCN(c4ccc(C)nn4)C3)C2)cn1 (stereo unspecified)
4. Cc1nc(C2(NCC(=O)NCc3cccs3)CCCCC2)no1
5. c1cn(Cc2nnc(C3CCN(c4nccs4)CC3)n2C2CC2)cn1

Response:
1: -4.35; 2: -4.28; 3: -10.8; 4: -2.14; 5: -4.16

// each compound listed below needs its cytotoxicity at 70.5 h
1. COc1ccc(-c2nc3c([nH]2)CCCNC3=O)cc1OC
2. CCc1cnc(N)nc1N[C@@H](C)c1ncccc1C
3. COc1ccccc1OC1CN(C(=O)C(c2ccc(F)cc2)N(C)C)C1 (stereo unspecified)
4. O=C1COc2cc(C(=O)NS(=O)(=O)c3cccc(Cl)c3)ccc2N1
5. COCCN1CCCC2(CCN(Cc3nnc(C4CC4)o3)C2)C1=O (stereo unspecified)
6. Cc1nc(CN2C(=O)COC3(CCN(Cc4ccsc4)CC3)C2C)cs1 (stereo unspecified)
7. CCN1CC2(CC1=O)CN(C(=O)c1ccco1)CCN(C(=O)C(C)C)C2 (stereo unspecified)

Response:
1: 4.81; 2: -12.4; 3: -1.1; 4: -19.1; 5: -6.43; 6: -1.09; 7: 0.454

// each compound listed below needs its cytotoxicity at 70.5 h
1. CCN(CC)Cc1ccc(C(=O)N2CCCC2Cn2cccn2)cc1 (stereo unspecified)
2. CCC1=N[C@@]2(CC[C@@H]3CN(C(=O)NCC(C)C)C[C@@H]32)C(=O)N1CC1CC1

Response:
1: -7.71; 2: -2.4

Reference source: ChEMBL document CHEMBL3507680
